Record form. Attribute: melting point. Fill in for each entry.

(Q) Fill blank: measured melting point of the compound O=C(CSc1nnc(CCNc2ccccc2)n1-c1ccccc1)NN=Cc1ccc[nH]1 is ____.
(A) 215 to 216 °C

(Q) Look up melting point: O=C(CSc1nnc(CCNc2ccccc2)n1-c1ccccc1)NN=Cc1cccnc1
(A) 92 to 93 °C

(Q) Suppose we examine the compound NNC(=O)CSc1nnc(CCNc2ccccc2)n1-c1ccccc1 ; what melting point value has been reported?
(A) 112 to 113 °C

(Q) Request the reported melting point associated with O=C(CSc1nnc(CCNc2ccccc2)n1-c1ccccc1)NN=C1C(=O)Nc2ccc(F)cc21
(A) 266 to 267 °C

(Q) Which melting point value is on record for CCOC(=O)CSC1NN=C(CCNc2ccccc2)N1c1ccccc1 (centres unmarked) ?
(A) 121 to 122 °C

(Q) Entry Cc1ccc(C=NNC(=O)CSc2nnc(CCNc3ccccc3)n2-c2ccccc2)cc1 has what melting point?
(A) 189 to 190 °C

(Q) Item under review: O=C(CSc1nnc(CCNc2ccccc2)n1-c1ccccc1)NN=Cc1c[nH]nc1-c1ccccc1 . Reported melting point?
(A) 119 to 120 °C

(Q) Return reported melting point; argument: COc1ccc2c(c1)C(=NNC(=O)CSc1nnc(CCNc3ccccc3)n1-c1ccccc1)C(=O)N2
(A) 238 to 239 °C

(Q) Any idea what melting point was measured for O=C(CSc1nnc(CCNc2ccccc2)n1-c1ccccc1)NN=C1C(=O)Nc2ccccc21 ?
(A) 252 to 253 °C

(Q) If you can, please state the reported melting point value of Cn1ccc(C=NNC(=O)CSc2nnc(CCNc3ccccc3)n2-c2ccccc2)n1 .
(A) 62 to 63 °C

(Q) Entry O=C(CSc1nnc(CCNc2ccccc2)n1-c1ccccc1)NN=C1C(=O)Nc2ccc([N+](=O)[O-])cc21 has what melting point?
(A) 274 to 275 °C

(Q) Can you share its melting point? I mean this compound: O=C(CSc1nnc(CCNc2ccccc2)n1-c1ccccc1)NN=Cc1cc([N+](=O)[O-])ccc1O
(A) 219 to 220 °C

(Q) I have this compound here, O=C(CSc1nnc(CCNc2ccccc2)n1-c1ccccc1)NN=Cc1ccncc1 , and I need its recorded melting point.
(A) 209 to 210 °C

(Q) Which measured melting point value corresponds to O=C(CSc1nnc(CCNc2ccccc2)n1-c1ccccc1)NN=C1C(=O)Nc2ccc(OC(F)(F)F)cc21 ?
(A) 258 to 259 °C

(Q) What measured melting point goes with O=C(CSc1nnc(CCNc2ccccc2)n1-c1ccccc1)NN=Cc1ccc(C(=O)O)cc1 ?
(A) 233 to 234 °C

(Q) Entry CSc1ccc(C=NNC(=O)CSc2nnc(CCNc3ccccc3)n2-c2ccccc2)cc1 has what melting point?
(A) 196 to 197 °C

(Q) Query: melting point; subject: CN(C)c1ccc(C=NNC(=O)CSc2nnc(CCNc3ccccc3)n2-c2ccccc2)cc1
(A) 169 to 170 °C

----------
Test system: human malignant melanoma cell line IGR39
METHOD: MTT cell viability assay, IGR39
Format: cell-based
EXPERIMENTAL_CONDITIONS: 50 µM, 72 h
VALUE_KIND: activity against the IGR39 cell line (screening)

[
  {
    "MOLECULE": "O=C(CSc1nnc(CCNc2ccccc2)n1-c1ccccc1)NN=Cc1ccc[nH]1 [Compound 14]",
    "MEASURED_VALUE": "least active"
  },
  {
    "MOLECULE": "O=C(CSc1nnc(CCNc2ccccc2)n1-c1ccccc1)NN=C1C(=O)Nc2ccc(OC(F)(F)F)cc21 [Compound 8]",
    "MEASURED_VALUE": "most active"
  },
  {
    "MOLECULE": "CSc1ccc(C=NNC(=O)CSc2nnc(CCNc3ccccc3)n2-c2ccccc2)cc1 [Compound 19]",
    "MEASURED_VALUE": "least active"
  },
  {
    "MOLECULE": "O=C(CSc1nnc(CCNc2ccccc2)n1-c1ccccc1)NN=C1C(=O)Nc2ccc(F)cc21 [Compound 7]",
    "MEASURED_VALUE": "most active"
  }
]
